What growth was measured for each of the following?
tested on: MOLT-4 leukemia; assay: NCI-60 one-dose screen, 48 h (100 = growth as untreated, 0 = no growth, -100 = all killed); conditions: 10 µM unless noted
This is part of a sample that, as a whole, favours compounds with a hit. Of some 83,000 tested, about 20% had one in any assay. Active and inactive are the calls of the source. How the source made its calls: active means growth percent below 10; inactive means the rest.

compound	growth
c1ccc2sc(SSN3CC4CCC(CC4)C3)nc2c1	56.3% (inactive)
CN(C)CCSC1=Nc2ccc(Cl)cc2C(c2ccccc2Cl)N(C)C1 (stereo not drawn)	79.2% (inactive)

Now for the compound whose growth we want.
The value of growth measured for the compound `Oc1ccc(Cl)cc1Cc1cc(Cl)ccc1O` turned out to be 41.3% (inactive)

Source of measurements: PubChem BioAssay (NCI)
